Origin of measurements: patent US20240166602A1

system: human melanoma (A375) cells; experiment: MTT tumor cell growth inhibition, human melanoma (A375); type: cell-based; settings: A375, 48 h culture, MTT method; read-out: IC50 value of target compound against cancer cell proliferation, A375
metric-name: IC50 (µM)
Report the value in µM with no unit label.

stdin: Fill in: IC50 of N.N.[Cl][Pt][Cl] [cisplatin, reference compound] is ___
stdout: 5.91

---

test system: human ovarian cancer (SKOV3) cells; test: MTT tumor cell growth inhibition, human ovarian cancer (SKOV3); format: cell-based; settings: Homo sapiens, SK-OV-3; SKOV3, 48 h culture, MTT method; read-out: IC50 value of target compound against cancer cell proliferation, SKOV3
Fulfilled if IC50 is below 10 µM. Not fulfilled if not; exact matches included in Not fulfilled.

# example entries with known answers
COc1cc(CN(C)CC(O)COc2cc(Cl)cc(Cl)c2)ccc1OCCN1CCC(C)CC1 (stereo not drawn) [CHJ04012] :: Fulfilled
COc1cc(CN(C)CC(O)COc2ccc(C)c(Br)c2)ccc1OCCN1CCCC1 (stereo not drawn) [CHJ04064] :: Not fulfilled
COc1cc(CN(C)CC(O)COc2ccc(Cl)c(Cl)c2)ccc1OCCN1CCC(C)CC1 (stereo not drawn) [CHJ04026] :: Fulfilled

stdin: hey, is IC50 for COc1cc(CN(C)CC(O)COc2ccc(C)c(Br)c2)ccc1OCCN1CCC(C)CC1 (stereo not drawn) [CHJ04010] lower than 10 µM or not?
stdout: Fulfilled

stdin: Do the same for COc1cc(CN(C)CC(O)COc2cc(Br)ccc2F)ccc1OCCN1CCC(C)CC1 (stereo not drawn) [CHJ03018] please
stdout: Fulfilled

stdin: Same lookup for COc1ccc(OCC(O)CN(C)Cc2ccc(OCCN3CCC(C)CC3)c(OC)c2)cc1 (stereo not drawn) [CHJ04084] , please.
stdout: Not fulfilled

stdin: Here is the next compound: COc1cc(CN(C)CC(O)COc2cc(Cl)cc(Cl)c2)ccc1OCCN1CCCC1 (stereo not drawn) [CHJ04066]
stdout: Not fulfilled
